test: Solvent solubility of perfluoroalkanamides; assay type: physicochemical; set-up: key: S: complete dissolve in the solvent at room temperature; P: precipitation in the solvent; settings: 3% w/w, @ RT
METRIC: Solubility in Hexane

CCCCCCCCCCCCNC(=O)C(F)(F)C(F)(F)C(F)(F)C(F)(F)C(F)(F)C(F)(F)C(F)(F)C(F)(F)F
@ RT → P >
CCCCCCCCNC(=O)C(F)(F)C(F)(F)C(F)(F)C(F)(F)C(F)(F)C(F)(F)C(F)(F)C(F)(F)F
S
CCCCCCCCCCCCNC(=O)C(F)(F)C(F)(F)C(F)(F)C(F)(F)C(F)(F)C(F)(F)F
S
CCCCCCCCCCCCNC(=O)C(F)(F)C(F)(F)C(F)(F)C(F)(F)C(F)(F)C(F)(F)C(F)(F)F
@ RT → P >
